# assay-explanation: Partition coefficient (logP)
# Type: physicochemical
# measurement-context: octanol/water; read-out: logP
Everything with logP lower than 2 is 0.0; everything else, including exactly 2, is 1.0.

Please review the following examples before continuing.
{"compound": "O=NN(CCCl)C(=O)NCCF", "label-value": 0.0}
{"compound": "CC1(NC(=O)N(CCCl)N=O)CCCC1", "label-value": 1.0}
{"compound": "CC(=O)O[C@@H]1[C@@H](OC(C)=O)[C@H](OC(C)=O)CO[C@H]1NC(=O)N(CCCl)N=O", "label-value": 0.0}

Request: Is logP at least 2? Consider O=NN(CCCl)C(=O)NC1CCC(NC(=O)N(CCCl)N=O)CC1 (stereo not given)
Response: 1.0

Request: Is logP at least 2? Consider `O=NN(CCCl)C(=O)NC1CS(=O)(=O)CS(=O)(=O)C1`
Response: 0.0

Request: Is logP at least 2? Consider CC(=O)OCC1OCC(NC(=O)N(CCCl)N=O)C(OC(C)=O)C1OC(C)=O (stereo not given)
Response: 0.0

Request: Is logP at least 2? Consider `CCOC(=O)C1(NC(=O)N(CCCl)N=O)CCCCC1`
Response: 1.0

Request: Is logP at least 2? Consider `O=NN(CCCl)C(=O)N[C@@H]1CCCC[C@@H]1O`
Response: 0.0

Request: Is logP at least 2? Consider `C[C@H]1S(=O)(=O)C[C@@H](NC(=O)N(CCCl)N=O)CS1(=O)=O`
Response: 0.0

Request: Is logP at least 2? Consider `CC1(C)CCC(NC(=O)N(CCF)N=O)CC1`
Response: 1.0

Request: Is logP at least 2? Consider `O=NN(CCF)C(=O)NC1CCCCC1`
Response: 1.0

Request: Is logP at least 2? Consider CCOC(=O)C1CCC(NC(=O)N(CCCl)N=O)CC1 (stereo not given)
Response: 1.0

Request: Is logP at least 2? Consider O=NN(CCCl)C(=O)NC1CC2CCC1C2 (stereo not given)
Response: 1.0

Request: Is logP at least 2? Consider `O=NN(CCCl)C(=O)N[C@@H]1CCC[C@H](O)C1`
Response: 0.0

Request: Is logP at least 2? Consider `CC(=O)O[C@H]1CCCC[C@@H]1NC(=O)N(CCCl)N=O`
Response: 1.0

Request: Is logP at least 2? Consider `O=NN(CCCl)C(=O)NC1CCS(=O)(=O)CC1`
Response: 0.0

Request: Is logP at least 2? Consider `O=NN(CCCl)C(=O)NC1(C(=O)O)CCCC1`
Response: 0.0

====

# Tested on: L1210
# assay-explanation: Toxicity against L-1210 leukemia cells in mice after intraperitoneal administration, activity is expressed as LD10
# Parameters: unit not given here
# measurement-context: mouse, in vivo, ip
readout-kind: LD10
// no unit string in output, number only

{"query-smiles": "CN(C)C(=O)c1ccc(NC(=O)N(CCCl)N=O)cc1", "readout-kind": "LD10", "measured": 1.27}

Request: State its LD10: `C[C@H]1CCC[C@H](NC(=O)N(CCCl)N=O)C1`
Response: 0.352

====

Below is a list of entries, each paired with its recorded log(1/LD10) value.
# Tested on: L1210
# assay-explanation: Toxicity against L-1210 leukemia cells in mice after intraperitoneal administration, activity is expressed as LD10
# measurement-context: mouse, in vivo, ip
// no unit string in output, number only

{"molecule": "O=NN(CCCl)C(=O)NC1CCC(=O)NC1=O (stereo not given)", "measured": 1.16}

Request: State its log(1/LD10): O=NN(CCCl)C(=O)NC1CCCC(NC(=O)N(CCCl)N=O)C1 (stereo not given)
Response: 0.146

Request: State its log(1/LD10): `CO[C@H]1CC[C@H](NC(=O)N(CCCl)N=O)CC1`
Response: 0.841

Request: State its log(1/LD10): O=NN(CCCl)C(=O)N[C@H]1C(O)O[C@H](CO)[C@@H](O)[C@@H]1O (stereo in doubt; 103) [CHLOROZOTOCIN]
Response: 0.928

Request: State its log(1/LD10): CC(=O)OC1CCC(NC(=O)N(CCF)N=O)CC1 (stereo not given)
Response: 0.884

====

# System: L1210
# assay-explanation: Toxicity against L-1210 leukemia cells in mice after intraperitoneal administration, activity is expressed as LD10
# measurement-context: mouse, in vivo, ip
Below is a list of entries, each paired with its recorded log(1/LD10) value.
// no unit string in output, number only

# annotated cases, reported log(1/LD10) shown
{"compound": "O=NN(CCCl)C(=O)NC1CCC(NC(=O)N(CCCl)N=O)CC1 (stereo not given)", "assayed-system": "L1210", "log(1/LD10)": 0.66}
{"compound": "O=NN(CCCl)C(=O)NC1CCC(Cl)CC1 (stereo not given)", "assayed-system": "L1210", "log(1/LD10)": 0.738}
{"compound": "O=NN(CCCl)C(=O)NC1C=CCCC1 (stereo not given)", "assayed-system": "L1210", "log(1/LD10)": 0.848}
{"compound": "CCC1CCC(NC(=O)N(CCF)N=O)CC1 (stereo not given)", "assayed-system": "L1210", "log(1/LD10)": 0.515}
{"compound": "CC(=O)OC1CCC(NC(=O)N(CCCl)N=O)CC1 (stereo not given)", "assayed-system": "L1210", "log(1/LD10)": 0.813}

Request: State its log(1/LD10): `O=NN(CCF)C(=O)NC1CS(=O)(=O)CS(=O)(=O)C1`
Response: 0.626

Request: State its log(1/LD10): `C[C@H]1CCC[C@@H](NC(=O)N(CCCl)N=O)C1`
Response: 0.315

Request: State its log(1/LD10): CCOC(=O)C1CCC(NC(=O)N(CCCl)N=O)CC1 (stereo not given)
Response: 0.967

Request: State its log(1/LD10): COCC1OC(O)C(NC(=O)N(CCCl)N=O)C(OC)C1OC (stereo not given)
Response: 0.682

Request: State its log(1/LD10): `O=NN(CCCl)C(=O)NC1CCS(=O)(=O)CC1`
Response: 1.22

Request: State its log(1/LD10): `O=NN(CCF)C(=O)NC1CCCCCCCCCCC1`
Response: 0.496

Request: State its log(1/LD10): `O=NN(CCCl)C(=O)N[C@H]1CC[C@H](CC(=O)O)CC1`
Response: 0.863

Request: State its log(1/LD10): `CCOC(=O)C1(NC(=O)N(CCCl)N=O)CCCC1`
Response: 0.072

Request: State its log(1/LD10): O=NN(CCF)C(=O)NC1CCC(NC(=O)N(CCCl)N=O)CC1 (stereo not given)
Response: 0.595

Request: State its log(1/LD10): `O=NN(CCCl)C(=O)N[C@@H]1CCCC[C@@H]1O`
Response: 0.698

Request: State its log(1/LD10): CC(=O)OCC1CCC(NC(=O)N(CCCl)N=O)CC1 (stereo not given)
Response: 1.02

Request: State its log(1/LD10): CC(C)(C)C1CCC(NC(=O)N(CCCl)N=O)CC1 (stereo not given)
Response: -0.212

====

# assay-explanation: Partition coefficient (logP)
# Assay type: physicochemical
# measurement-context: octanol/water; read-out: logP
readout-kind: logP
// no unit string in output, number only

# annotated cases, reported logP shown
{"compound": "CC(=O)OC1CCC(NC(=O)N(CCCl)N=O)CC1 (configuration not stated)", "readout-kind": "logP", "measured": 1.66}
{"compound": "CC1CCC(NC(=O)N(CCF)N=O)CC1 (configuration not stated)", "readout-kind": "logP", "measured": 2.72}

Request: State its logP: O=NN(CCCl)C(=O)NC1CCCC(C(=O)O)C1 (configuration not stated)
Response: 1.86

Request: State its logP: COC1OC(COC(C)=O)C(OC(C)=O)C(NC(=O)N(CCCl)N=O)C1OC(C)=O (configuration not stated)
Response: 0.67

Request: State its logP: CCOC(=O)C1CCCC(NC(=O)N(CCCl)N=O)C1 (configuration not stated)
Response: 2.2

Request: State its logP: O=NN(CCCl)C(=O)NC1CCC(CCl)CC1 (configuration not stated)
Response: 3.01

Request: State its logP: `O=NN(CCCl)C(=O)NC1CCCC1`
Response: 2.19

====

# Tested on: L1210
# assay-explanation: Toxicity against L-1210 leukemia cells in mice after intraperitoneal administration, activity is expressed as LD10
# measurement-context: mouse, in vivo, ip
readout-kind: log(1/LD10)
// no unit string in output, number only

{"compound": "O=NN(CCCl)C(=O)NC1CCCC1", "measured": 0.215}
{"compound": "O=NN(CCF)C(=O)NC1CCSc2ccccc21 (stereo not drawn)", "measured": 0.896}
{"compound": "O=NN(CCCl)C(=O)NC1(C(=O)O)CCCC1", "measured": 0.308}

Request: State its log(1/LD10): `O=NN(CCCl)C(=O)N[C@@H]1CCC[C@H](O)C1`
Response: 0.698

Request: State its log(1/LD10): `O=NN(CCF)C(=O)NCCF`
Response: 1.37

Request: State its log(1/LD10): O=NN(CCCl)C(=O)NC1CCCCC1NC(=O)N(CCCl)N=O (stereo not drawn)
Response: 0.423

Request: State its log(1/LD10): `O=NN(CCF)C(=O)NC1CCCCC1`
Response: 0.806

Request: State its log(1/LD10): `O=NN(CCF)C(=O)NC1CSCSC1`
Response: 0.802

Request: State its log(1/LD10): CC(=O)OCC1OC(NC(=O)N(CCCl)N=O)C(OC(C)=O)C(OC(C)=O)C1OC(C)=O (stereo not drawn)
Response: 1.41

Request: State its log(1/LD10): `CC(C)(Cc1ccccc1)NC(=O)N(CCCl)N=O`
Response: -0.422

Request: State its log(1/LD10): O=NN(CCF)C(=O)NC1C2CC3CC(C2)CC1C3 (stereo not drawn)
Response: 0.592

Request: State its log(1/LD10): `O=NN(CCCl)C(=O)NCCF`
Response: 0.49

Request: State its log(1/LD10): `O=NN(CCCl)C(=O)N[C@@H]1CCCC[C@@H]1Cl`
Response: 0.446
